B1: Glucocorticoid receptor, residues 419 to 494; numbered along this chain, P04150 (parent)
chain: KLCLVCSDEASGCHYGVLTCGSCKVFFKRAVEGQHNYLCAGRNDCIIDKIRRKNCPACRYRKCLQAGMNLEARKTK

Variants of: B1
Assay: abundance fitness (aPCA) (normalised: wild type 0, dead -1); higher = more abundant; growth selection in yeast, the domain comes from the species named
Conditions: Homo sapiens
Would you mind telling me the reported abundance fitness of each entry?
Respond numerically, and do not add a unit to the figure.

Briefly, abundance fitness measured for G41A : -0.016

K49R yielded abundance fitness of -0.004

Lookup result for Q65G ; measured abundance fitness: -0.06

Lab note: measured abundance fitness of F27C was -0.518

Value of abundance fitness reported for the variant V5Y is -0.631

The variant listed as A72I has a reported abundance fitness of 0.002

// field: abundance fitness; key: G67A ; value = -0.542

Lab note: C58P gave abundance fitness of -0.842

abundance fitness measured on G21E = 0.076

Looking up K74S , I found its abundance fitness recorded as -0.047

Given item R59F , the value recorded as its abundance fitness is -0.513
